- protocolText: Figure 6
- Design: concentration or dose not given beside the values
Where a SMILES comes first, the peptide text is derived from it. Bridges are numbered along the chain shown (N, C = ends). [ ]: non-standard residue; d: D form. R8 = C=CCCCCCC[C@@](C)(N)C(=O)O; S5 = C=CCCC[C@](C)(N)C(=O)O; Nle = CCCC[C@H](N)C(=O)O; Aib = CC(C)(N)C(=O)O
quantityKind: AUC,all
Provide the measurement as a number trailed by its unit.

Read the entry CCCC[C@H](NC(C)=O)C(=O)N[C@@H](CC(=O)O)C(=O)N[C@H](C(=O)N[C@@H](CC(N)=O)C(=O)NC(C)(C)C(=O)N[C@H](C(=O)N[C@]1(C)CCCCCCC=CCCC[C@@](C)(C(=O)N[C@@H](CCCNC(=N)N)C(N)=O)NC(=O)[C@H](C)NC(=O)[C@H](C(C)C)NC(=O)[C@H](CCCCN)NC(=O)[C@H](CC(C)C)NC(=O)[C@H](Cc2ccccc2)NC(=O)[C@H](CC(C)C)NC1=O)[C@@H](C)O)C(C)C [SP-15, Ac-NlcDVNAibT$r8LFLKVA$R-NH2] (Ac-[Nle]DVN[Aib]T[R8]LFLKVA[S5]R-NH2; staple 7-14) and write its reported AUC,all.
23300 ng·h/mL

Read the entry CCCC[C@H](NC(C)=O)C(=O)N[C@@H](CC(=O)O)C(=O)N[C@H](C(=O)N[C@@H](CC(N)=O)C(=O)N1CCC[C@H]1C(=O)N[C@H](C(=O)N[C@@H](CC(C)C)C(=O)N[C@@]1(C)CCCC=CCCC[C@@](C)(C(=O)N[C@@H](C)C(=O)N[C@@H](C)C(=O)N[C@@H](CCC(N)=O)C(N)=O)NC(=O)[C@H](CCCCN)NC(=O)[C@H](CC(C)C)NC(=O)[C@H](Cc2ccccc2)NC1=O)[C@@H](C)O)C(C)C [SP-10, Ac-NleDVNPTL$FLK$AAQ-NH2] (Ac-[Nle]DVNPTL[S5]FLK[S5]AAQ-NH2; staple 8-12) and write its reported AUC,all.
5770 ng·h/mL

Read the entry CCCC[C@H](NC(C)=O)C(=O)N[C@@H](CC(=O)O)C(=O)N[C@H](C(=O)N[C@@H](CC(N)=O)C(=O)NC(C)(C)C(=O)N[C@H](C(=O)N[C@@H](CC(C)C)C(=O)N[C@@H](CC(C)C)C(=O)N[C@@H](Cc1ccccc1)C(=O)N[C@@]1(C)CCCC=CCCC[C@@](C)(C(=O)N[C@@H](CCCNC(=N)N)C(N)=O)NC(=O)[C@H](C)NC(=O)[C@H](C(C)C)NC(=O)[C@H](CCCCN)NC1=O)[C@@H](C)O)C(C)C [SP-6, Ac-NleDVNAibTLLF$KVA$R-NH2] (Ac-[Nle]DVN[Aib]TLLF[S5]KVA[S5]R-NH2; staple 10-14) and write its reported AUC,all.
10894 ng·h/mL

Read the entry CCCC[C@H](NC(C)=O)C(=O)N[C@@H](CC(=O)O)C(=O)N[C@H](C(=O)N[C@@H](CC(N)=O)C(=O)N1CCC[C@H]1C(=O)N[C@H](C(=O)N[C@@H](CC(C)C)C(=O)N[C@@H](CC(C)C)C(=O)N[C@@H](Cc1ccccc1)C(=O)N[C@@H](CC(C)C)C(=O)N[C@@H](CCCCN)C(=O)N[C@H](C(=O)N1CCC[C@H]1C(=O)N[C@@H](C)C(=O)N[C@@H](CCC(N)=O)C(N)=O)C(C)C)[C@@H](C)O)C(C)C and write its reported AUC,all.
1606 ng·h/mL

Read the entry CCCC[C@H](NC(C)=O)C(=O)N[C@@H](CC(=O)O)C(=O)N[C@H](C(=O)N[C@@H](CC(N)=O)C(=O)N1CCC[C@H]1C(=O)N[C@H](C(=O)N[C@@H](CC(C)C)C(=O)N[C@@H](CC(C)C)C(=O)N[C@@H](Cc1ccccc1)C(=O)N[C@@]1(C)CCCC=CCCC[C@@](C)(C(=O)N[C@@H](CCCNC(=N)N)C(N)=O)NC(=O)[C@H](C)NC(=O)[C@H](C(C)C)NC(=O)[C@H](CCCCN)NC1=O)[C@@H](C)O)C(C)C [SP-11, Ac-NleDVNPTLLF$KVA$R-NH2] (Ac-[Nle]DVNPTLLF[S5]KVA[S5]R-NH2; staple 10-14) and write its reported AUC,all.
9065 ng·h/mL
